test: Immunotoxin (HA22) sensitization/mitigation study. Vehicle arm (PBS) (AID 1159510); details: cancer cells viability with PBS vehicle (HA22 study); series mostly up to 46.1 µM
Calls of active or inactive are those of the source. The rule behind the calls is not given here.
Pick one and only one: t (active), f (inactive)

Use the examples below as a reference point.
compound	labelClass
CC(C)(C(=O)NCC(F)(F)C(F)(F)F)C(=O)N[C@@H]1C(=O)Nc2ccccc2-c2ccccc21	f
O=C(NOC[C@H](O)CO)c1ccc(F)c(F)c1Nc1ccc(I)cc1F	f
O=C(Nc1cccnc1)N1CCC(Cc2cccc(Oc3ccc(C(F)(F)F)cn3)c2)CC1	t

GET /call?item= C[C@@H]1C[C@H]2[C@@H]3CCC4=CC(=O)C=C[C@]4(C)C3(F)[C@@H](O)C[C@]2(C)[C@@]1(O)C(=O)CO (stereo partly specified) returns the recorded outcome of this test.
t

GET /call?item= Cc1cccc(-c2[nH]c(C(C)(C)C)nc2-c2ccc3nccnc3c2)n1 returns the recorded outcome of this test.
f

GET /call?item= Cn1cc(-c2ccc3nnc(Sc4ccc5ncccc5c4)n3n2)cn1 returns the recorded outcome of this test.
f

GET /call?item= Cc1ccc(F)c(NC(=O)Nc2ccc(-c3cccc4[nH]nc(N)c34)cc2)c1 returns the recorded outcome of this test.
t

Ref: PubChem BioAssay (NCATS)
